Each recorded value in this set is attributed to patent US20250368745A1.

Recorded EC50 in PBMC Assay 2 (precomplexed IL-18BP), IFNγ values for a group of binders are listed next.
Biological target: T1, human IL-18BP (interleukin-18 binding protein, isoform A) (human, UniProt O95998 31-194)
T1 sequence: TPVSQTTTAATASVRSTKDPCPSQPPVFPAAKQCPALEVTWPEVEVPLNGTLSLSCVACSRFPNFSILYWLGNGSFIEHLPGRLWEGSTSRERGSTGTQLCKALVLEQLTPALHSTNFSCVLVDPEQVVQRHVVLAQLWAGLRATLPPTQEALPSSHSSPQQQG
Experiment: cell-based or functional assay
recorded metric: EC50 in PBMC Assay 2 (precomplexed IL-18BP), IFNγ (nM)

binder	value measured
SA312a (antibody, human IgG1, V domains shown, humanized; human IgG1 (suffix a), kappa) VH: QVQLQESGPGLVKPSQTLSLTCTVSGYSITQDYNAHWIRQPPGKGLEWIGYIHYSGSTMYNPSLKSRVTISRDTSKNQFSLKLSSVTAADTAVYYCARNYGSIYVNYFDYWGQGTLVTVSS VL: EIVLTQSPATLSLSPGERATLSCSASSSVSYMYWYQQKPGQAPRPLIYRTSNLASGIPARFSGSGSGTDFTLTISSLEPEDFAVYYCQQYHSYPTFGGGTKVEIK	0.74
SA319a (antibody, human IgG1, V domains shown, humanized; human IgG1 (suffix a), kappa) VH: QVQLQESGPGLVKPSQTLSLTCTVSGYSITQDYNAHWIRQPPGKGLEWIGYIHYSGQTNYNPSLKSRVTISRDTSKNQFSLKLSSVTAADTAVYYCARNFGSIYVNYFDYWGQGTLVTVSS VL: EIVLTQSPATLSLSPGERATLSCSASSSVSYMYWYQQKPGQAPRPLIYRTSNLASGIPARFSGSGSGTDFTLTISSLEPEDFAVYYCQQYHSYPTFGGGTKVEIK	0.07
SA318a (antibody, human IgG1, V domains shown, humanized; human IgG1 (suffix a), kappa) VH: QVQLQESGPGLVKPSQTLSLTCTVSGYSITQDYNAHWIRQPPGKGLEWIGYIHYSGQTMYNPSLKSRVTISRDTSKNQFSLKLSSVTAADTAVYYCARNFGSIYVNYFDYWGQGTLVTVSS VL: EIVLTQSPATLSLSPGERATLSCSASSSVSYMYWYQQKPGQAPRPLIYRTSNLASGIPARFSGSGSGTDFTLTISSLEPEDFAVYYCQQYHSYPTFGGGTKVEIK	0.7
SA304a (antibody, human IgG1, V domains shown) VH: QVQLQESGPGLVKPSQTLSLTCTVSGYSITSDYNAHWIRQPPGKGLEWIGYIHYSGSTNYNPSLKSRVTISRDTSKNQFSLKLSSVTAADTAVYYCARNYASIYVNYFDYWGQGTLVTVSS VL: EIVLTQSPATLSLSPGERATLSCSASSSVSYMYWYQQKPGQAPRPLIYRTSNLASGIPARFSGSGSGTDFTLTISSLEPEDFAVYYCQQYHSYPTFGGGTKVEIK	3
SA315a (antibody, human IgG1, V domains shown, humanized; human IgG1 (suffix a), kappa) VH: QVQLQESGPGLVKPSQTLSLTCTVSGYSITSDYNAHWIRQPPGKGLEWIGYIHYSGQTMYNPSLKSRVTISRDTSKNQFSLKLSSVTAADTAVYYCARNFGSIYVNYFDYWGQGTLVTVSS VL: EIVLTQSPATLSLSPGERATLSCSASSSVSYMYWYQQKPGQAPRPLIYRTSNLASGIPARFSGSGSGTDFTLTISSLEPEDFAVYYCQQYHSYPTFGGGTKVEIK	0.49
SA316a (antibody, human IgG1, V domains shown, humanized; human IgG1 (suffix a), kappa) VH: QVQLQESGPGLVKPSQTLSLTCTVSGYSITSDYNAHWIRQPPGKGLEWIGYIHYSGSTYYNPSLKSRVTISRDTSKNQFSLKLSSVTAADTAVYYCARNYGSIYVNYFDYWGQGTLVTVSS VL: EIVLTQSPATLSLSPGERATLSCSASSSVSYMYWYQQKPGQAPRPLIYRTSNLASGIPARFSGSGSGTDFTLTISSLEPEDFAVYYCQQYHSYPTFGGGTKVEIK	0.64
SA329a (antibody, human IgG1, V domains shown, humanized; human IgG1 (suffix a), kappa) VH: QVQLQESGPGLVKPSQTLSLTCTVSGYSITSDYNAHWIRQPPGKGLEWIGYIHYSGSTNYNPSLKSRVTISRDTSKNQFSLKLSSVTAADTAVYYCARNYGSIYVNYFDYWGQGTLVTVSS VL: EIVLTQSPATLSLSPGERATLSCSASSSVSYMYWYQQKPGQAPRPLIYRTSNLASGIPARFSGSGSGTDFTLTISSLEPEDFAVYYCQQYHSYPKFGGGTKVEIK	7.4
SA321a (antibody, human IgG1, V domains shown, humanized; human IgG1 (suffix a), kappa) VH: QVQLQESGPGLVKPSQTLSLTCTVSGYSITQDYNAHWIRQPPGKGLEWIGYIHYSGQTLYNPSLKSRVTISRDTSKNQFSLKLSSVTAADTAVYYCARNFGSIYVNYFDYWGQGTLVTVSS VL: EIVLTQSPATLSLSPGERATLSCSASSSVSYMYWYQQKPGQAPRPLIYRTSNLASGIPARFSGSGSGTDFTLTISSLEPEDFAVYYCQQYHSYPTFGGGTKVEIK	0.85
SA302a (antibody, human IgG1, V domains shown, humanized; human IgG1 (suffix a), kappa) VH: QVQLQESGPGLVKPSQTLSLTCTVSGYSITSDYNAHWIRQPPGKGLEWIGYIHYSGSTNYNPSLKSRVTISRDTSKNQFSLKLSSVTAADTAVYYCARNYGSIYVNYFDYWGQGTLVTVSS VL: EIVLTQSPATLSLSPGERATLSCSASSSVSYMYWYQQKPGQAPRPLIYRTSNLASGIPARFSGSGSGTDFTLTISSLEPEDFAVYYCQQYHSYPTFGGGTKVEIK	2.15
SA313a (antibody, human IgG1, V domains shown, humanized; human IgG1 (suffix a), kappa) VH: QVQLQESGPGLVKPSQTLSLTCTVSGYSITSDYNAHWIRQPPGKGLEWIGYIHYSGSTMYNPSLKSRVTISRDTSKNQFSLKLSSVTAADTAVYYCARNFGSIYVNYFDYWGQGTLVTVSS VL: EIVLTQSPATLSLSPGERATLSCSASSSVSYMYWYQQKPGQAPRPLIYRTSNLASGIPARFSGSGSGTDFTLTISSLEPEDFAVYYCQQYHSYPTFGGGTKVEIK	0.71
